test system: HCT-116; assay: NCI tumour cell line growth inhibition, 48 h
The source made the active and inactive calls. Cut-off read from the data, not from the text of the source: active = GI50 up to about 1.1 µM and inactive = higher.
Classes used: active, inactive

molecule | label
CC(=O)OC1COC(N2C(=O)/C(=N\NC(N)=S)c3cc(Br)ccc32)C(OC(C)=O)C1OC(C)=O (stereo not given) | inactive
Clc1ccc2c(NCCNC3CCCCC3)ccnc2c1 | inactive
N#CC(C(=O)/C(=N/NC(=O)c1ccccc1O)C(C#N)c1ccc(Cl)cc1)c1ccc(Cl)cc1 (stereo not given) | inactive
CC(C)(C)C1CCC(CI)(N=[N+]=[N-])CC1 (stereo not given) | inactive
COc1ccccc1OCC(COC(=O)Nc1ccc(C)cc1)OC(=O)Nc1ccc(C)cc1 (stereo not given) | inactive
Cc1cc(-c2nc3cc(F)ccc3s2)ccc1NC(=O)C(C)N (stereo not given) | inactive
CCOC(=O)Oc1ccc2[nH]c3c(C)cc(N)c(C)c3c2c1 | inactive
Cc1noc(-c2ccc(C(=O)O)[nH]2)c1Br | inactive
COc1cc(C2c3[nH]c4ccccc4c3C[C@H]3COC(=O)N23)cc(OC)c1OC (stereo not given in full) | active
Oc1ccc2ccccc2c1/N=N/c1ccc(Cl)cc1 | inactive
C=C1c2nc3ccccc3n2C=C(c2ccc(C)cc2)N1c1ccccc1 | inactive
O=Cc1c2c(cc3c1CC1(C3)Cc3cc4c(c(C=O)c3C1)CCCC4)CCCC2 | inactive
COc1cc(/C=C2/C[C@H]3[C@@H]4CC=C5C[C@@H](O)CC[C@]5(C)[C@H]4CC[C@]3(C)NC2=O)cc(OC)c1OC | inactive
COC(=O)C1=CO[C@@H](OC2CC(CO)C(O)C(O)C2O)[C@@H]2[C@@H](C)[C@@H](OC(=O)/C=C/c3ccccc3)[C@@H](O)[C@H]12.COC(=O)C1=CO[C@@H](OC2CC(CO)C(O)C(O)C2O)[C@@H]2[C@@H](C)[C@@H](OC(=O)c3ccccc3)[C@@H](O)[C@H]12 (stereo not given in full) | inactive
COCC(=O)OC1CCn2c1nc1c2C(=O)C(C)=C(NC(C)=O)C1=N (stereo not given) | inactive
COc1ccc(/C=N/n2c(C)n[nH]c2=O)cc1 | inactive
O=C1CC2C=CC(O)C(C1)C2 (stereo not given) | inactive
COc1cc(/C=N\NC(=O)C[N+](C)(C)C)cc(OC)c1OC | inactive
O=C(COc1cc(=O)oc2ccccc12)c1ccccc1 | inactive
CC(CC(N)C(=O)O)C(=O)O (stereo not given) | inactive

----------
test system: UACC-62; experiment: NCI tumour cell line growth inhibition, 48 h
Activity calls are given as the source filed them. Rule as the data show it: active = GI50 up to about 1.1 µM and inactive = higher.
GI50 listing for selected molecules.
property-measured: GI50

molecule | assay-value
COC(=O)C1CC/C(=N/C2c3ccccc3-c3ccccc32)N1 (stereo not given) | 63 µM (inactive)
NC1=NCCN1CC(=O)O | > 1000 µM (inactive)
O=C(N/N=C(/c1nc2ccc([N+](=O)[O-])cc2[nH]c1=O)C(O)c1ccc([N+](=O)[O-])cc1)c1ccncc1 (stereo not given) | > 100 µM (inactive)
CC12CP(=O)(O)CC1C2(Cl)Cl (stereo not given) | > 100 µM (inactive)
CC1(C(=O)O)CCC[C@@]2(C)C1CC[C@@]1(C)c3cocc3CCC21 (stereo not given in full) | > 100 µM (inactive)
CCOC(=O)C1=C(OC(OCC)C(C)[Se]c2ccccc2)CCC1 (stereo not given) | 15.2 µM (inactive)
COc1cc(O)c(C(C)=O)c(O)c1 | 46.1 µM (inactive)
Cc1cn([C@@H]2O[C@H](CO[Si](C)(C)C(C)(C)C)[C@]3(O[C@H]3C(=O)NN)[C@H]2O[Si](C)(C)C(C)(C)C)c(=O)[nH]c1=O | 10.6 µM (inactive)
CC(NC(=O)C(CC(=O)OCc1ccccc1)NC(=O)OCc1ccccc1)c1ccccc1 (stereo not given) | 37.8 µM (inactive)
C[C@]12C=CC(=O)C=C1CC[C@@H]1[C@@H]2CC[C@@]2(C)[C@H]1CC[C@]2(O)C(N)=O | > 100 µM (inactive)

Reference for the values: ChEMBL document CHEMBL1201862
